Target: T1, P5SC1
T1 chain: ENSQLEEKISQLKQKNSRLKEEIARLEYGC
Assay: two-hybrid library CC1;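 note: natural log of median RNA to DNA barcode read ratio; higher means stronger binding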
Details: mean of both orientations
Quantity name: interaction score

INSERT INTO assay_data (binder, measured) VALUES
  ('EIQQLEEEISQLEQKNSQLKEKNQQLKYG [P3mS]', -2.77),
  ('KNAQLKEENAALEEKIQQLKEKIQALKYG [P10]', -2.65),
  ('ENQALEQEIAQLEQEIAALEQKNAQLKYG [P11]', -2.59),
  ('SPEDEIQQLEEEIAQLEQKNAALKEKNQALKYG [P3]', -2.58),
  ('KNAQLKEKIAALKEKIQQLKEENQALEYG [P12]', -2.96),
  ('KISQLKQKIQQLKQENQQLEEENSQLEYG [P4mS]', -2.92),
  ('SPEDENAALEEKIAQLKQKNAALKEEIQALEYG [P5]', -2.93),
  ('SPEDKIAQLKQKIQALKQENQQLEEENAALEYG [P4]', -2.83);
